Values compiled from ChEMBL document CHEMBL1159100.

assay: Toxicity in human RBC up to 512 ug/ml; assay type: cell-based; details: erythrocyte

| compound | Activity |
| --- | --- |
| Cc1ccccc1CNCC1CCCC(CNCc2ccccc2C)C1 (stereo not given) | Non-toxic |
| Clc1ccc(CNCC2CCCC(CNCc3ccc(Cl)cc3)C2)cc1 (stereo not given) | Non-toxic |
| Clc1cccc(CNCC2CCCC(CNCc3cccc(Cl)c3)C2)c1 (stereo not given) | Non-toxic |
| Cc1ccc(CNCC2CCCC(CNCc3ccc(C)c(C)c3)C2)cc1C (stereo not given) | Non-toxic |
| Brc1ccc(CNCC2CCCC(CNCc3ccc(Br)cc3)C2)cc1 (stereo not given) | Non-toxic |
| Clc1cccc(Cl)c1CNCC1CCCC(CNCc2c(Cl)cccc2Cl)C1 (stereo not given) | Non-toxic |
| Cc1cc(C)cc(CNCC2CCCC(CNCc3cc(C)cc(C)c3)C2)c1 (stereo not given) | Non-toxic |
| Cc1cccc(CNCC2CCCC(CNCc3cccc(C)c3)C2)c1 (stereo not given) | Non-toxic |
| Brc1cccc(CNCC2CCCC(CNCc3cccc(Br)c3)C2)c1 (stereo not given) | Non-toxic |
| Cc1ccc(CNCC2CCCC(CNCc3ccc(C)cc3)C2)cc1 (stereo not given) | Non-toxic |

----------
test: Toxicity in human RBC assessed as hemolytic activity at 512 ug/ml; type: cell-based, Erythrocyte; settings: red blood cells (RBC), read-out: Activity
recorded-endpoint: hemolysis at 512 ug/ml (%)

| compound | endpoint-value |
| --- | --- |
| CCCc1ccc(CNCC2CCCC(CNCc3ccc(CCC)cc3)C2)cc1 (stereo not given) | 4 |
| CC(C)(C)c1ccc(CNCC2CCCC(CNCc3ccc(C(C)(C)C)cc3)C2)cc1 (stereo not given) | 4 |
| CCc1ccc(CNCC2CCCC(CNCc3ccc(CC)cc3)C2)cc1 (stereo not given) | 0.5 |
| CC(C)c1ccc(CNCC2CCCC(CNCc3ccc(C(C)C)cc3)C2)cc1 (stereo not given) | 4 |
| CCCCc1ccc(CNCC2CCCC(CNCc3ccc(CCCC)cc3)C2)cc1 (stereo not given) | 4 |
